Would you mind telling me the reported kon of each entry?
TARGET: T1, Full-length human NT5E (recombinant, in-house) (human, UniProt P21589 27-549)
T1 construct: also called hNT5E; hNT5EWT
T1 sequence: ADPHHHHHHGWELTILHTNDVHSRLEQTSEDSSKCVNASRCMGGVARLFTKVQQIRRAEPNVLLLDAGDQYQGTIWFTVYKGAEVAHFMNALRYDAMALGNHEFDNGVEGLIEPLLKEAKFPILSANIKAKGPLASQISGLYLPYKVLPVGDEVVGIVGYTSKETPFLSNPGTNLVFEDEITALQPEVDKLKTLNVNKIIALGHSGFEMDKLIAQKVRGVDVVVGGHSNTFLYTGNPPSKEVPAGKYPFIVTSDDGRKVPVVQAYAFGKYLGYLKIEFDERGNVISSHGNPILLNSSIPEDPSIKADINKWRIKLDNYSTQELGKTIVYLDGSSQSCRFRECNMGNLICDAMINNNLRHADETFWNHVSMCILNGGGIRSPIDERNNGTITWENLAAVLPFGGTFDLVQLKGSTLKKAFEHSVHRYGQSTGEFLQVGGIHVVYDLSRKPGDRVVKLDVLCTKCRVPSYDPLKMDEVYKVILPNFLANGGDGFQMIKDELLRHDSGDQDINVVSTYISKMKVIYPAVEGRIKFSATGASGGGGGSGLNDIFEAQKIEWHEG
PROTOCOL: SPR, His-captured NT5E, no ATP
Answers are plain numbers, in M⁻¹ s⁻¹.

The following binders have reported results that may help.
1789 AM39 Fab (Fab, V domains shown) VH: EVQLVESGGGLVQPGGSLRLSCAASGFNVSYSSIHWVRQAPGKGLEWVASIRGAGSDTRYADSVKGRFTISADTSKNTAYLQMNSLRAEDTAVYYCARNYWGWYPFYYFAFDYWGQGTLVTV VL: DIQMTQSPSSLSASVGDRVTITCRASQSVSSAVAWYQQKPGKAPKLLIYSASSLYSGVPSRFSGSRSGTDFTLTISSLQPEDFATYYCQQGWDYPITFGQGTKVEIKR
280000
1789 AM32 Fab (Fab, V domains shown, also called Fab32) VH: EVQLVESGGGLVQPGGSLRLSCAASGFNVSYSSIHWVRQAPGKGLEWVARIRGNEGDTYYADSVKGRFTISADTSKNTAYLQMNSLRAEDTAVYYCARNYWGWYPFYYFAFDYWGQGTLVTV VL: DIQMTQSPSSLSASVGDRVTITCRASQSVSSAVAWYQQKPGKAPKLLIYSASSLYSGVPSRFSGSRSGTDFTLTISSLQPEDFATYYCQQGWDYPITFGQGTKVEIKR
110000
1789 AM42 Fab (Fab, V domains shown) VH: EVQLVESGGGLVQPGGSLRLSCAASGFNVSYSSIHWVRQAPGKGLEWVAKIRGGHQDTHYADSVKGRFTISADTSKNTAYLQMNSLRAEDTAVYYCARNYWGWYPFYYFAFDYWGQGTLVTV VL: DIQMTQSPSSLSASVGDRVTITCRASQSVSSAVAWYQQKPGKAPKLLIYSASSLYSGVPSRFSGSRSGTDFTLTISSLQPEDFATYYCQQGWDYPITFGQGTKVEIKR
180000

Please examine the following record next.
Ask | Give the measured kon of 1789 Fab (Fab, V domains shown) VH: EVQLVESGGGLVQPGGSLRLSCAASGFNVSYSSIHWVRQAPGKGLEWVASISSSSGYTYYADSVKGRFTISADTSKNTAYLQMNSLRAEDTAVYYCARNYWGWYPFYYFAFDYWGQGTLVTV VL: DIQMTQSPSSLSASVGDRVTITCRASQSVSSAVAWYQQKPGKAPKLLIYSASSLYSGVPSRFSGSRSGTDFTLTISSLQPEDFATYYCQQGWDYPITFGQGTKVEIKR .
Reply | 57000
